tested-system: hsMetAP-II (Homo sapiens)
Sequence (P50579 whole entry): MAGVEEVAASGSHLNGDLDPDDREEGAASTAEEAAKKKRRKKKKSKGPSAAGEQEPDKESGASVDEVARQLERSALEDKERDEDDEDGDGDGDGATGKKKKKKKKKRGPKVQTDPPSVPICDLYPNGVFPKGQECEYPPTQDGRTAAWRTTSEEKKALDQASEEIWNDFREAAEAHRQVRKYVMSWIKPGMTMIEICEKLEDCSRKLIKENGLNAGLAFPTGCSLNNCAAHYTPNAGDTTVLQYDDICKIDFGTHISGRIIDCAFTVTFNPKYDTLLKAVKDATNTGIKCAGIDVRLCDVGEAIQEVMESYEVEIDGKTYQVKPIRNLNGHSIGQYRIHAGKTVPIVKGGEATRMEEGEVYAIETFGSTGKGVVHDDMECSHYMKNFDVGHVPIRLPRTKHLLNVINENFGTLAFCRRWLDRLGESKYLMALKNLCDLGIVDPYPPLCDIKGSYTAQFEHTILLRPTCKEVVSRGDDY
assay-name: MetAP inhibitory activity, Met-Gly-Met-Met substrate, HPLC detection of Gly-Met-Met
Format: biochemical, hs
// values below are reported log10 of IC50
Recall that a logarithmic scale is used here: each number is log10 of IC50 in nM.

Here are 5 compounds together with their reported answers.
# compound, result-number
measured = [
    ("O=C(O[C@@H]1CC[C@@]2(CO2)c2c1nnn2Cc1ccccc1)c1ccccc1 (racemic) [JL-III-147-B]", 4.28),
    ("COc1ccc(Cn2nnc3c2C2(CCC3OC(=O)NCC(C)C)CO2)cc1 (racemic) [UWU-XII-142-A]", 2.18),
    ("O=C(O[C@@H]1CC[C@]2(CO2)c2c1nnn2Cc1ccc2ccccc2c1)c1ccccc1 (racemic) [JL-III-132-C]", 3.57),
    ("CC(C)c1ccc(Cn2nnc3c2[C@]2(CC[C@H]3OC(=O)c3ccccc3)CO2)cc1 (racemic) [UWU-XII-036-A]", 3.67),
    ("COc1ccc(Cn2nnc3c2[C@@]2(CC[C@H]3OC(=O)/C=C/c3cc(OC)c(OC)c(OC)c3)CO2)cc1 (racemic) [UWU-II-035-C]", 3.31),
]

*Q* Give the measured log10 of IC50 of O=C(O[C@@H]1CC[C@]2(CO2)c2c1nnn2Cc1ccccc1)c1ccccc1 (racemic) [JL-III-147-A] .
*A* 3.11

----------
tested-system: hsMetAP-II (Homo sapiens)
assay-name: MetAP inhibitory activity, Met-Gly-Met-Met substrate, HPLC detection of Gly-Met-Met
Format: biochemical, hs
condition-context: enzyme 50 nM, 400 µM Met-Gly-Met-Met, 60 minutes at 37 °C; read-out: hsMetAP-II IC50
// values below are reported pIC50
Quick note: pIC50 means taking -log10 of the concentration in moles per liter.

Here are 4 compounds together with their reported answers.
# compound, pIC50
data = [
    ("CC(C)c1ccc(Cn2nnc3c2C2(CCC3=O)CO2)cc1 (stereo not drawn) [JL-III-138-A]", 5.26),
    ("O=C1CCC2(CO2)c2c1nnn2Cc1ccc(C(F)(F)F)cc1 (stereo not drawn) [BK-I-161-A]", 6.28),
    ("O=C1CCC2(CO2)c2c1nnn2Cc1ccc2ccccc2c1 (stereo not drawn) [HHS-I-020-C]", 5.57),
    ("Cc1ccccc1Cn1nnc2c1C1(CCC2=O)CO1 (stereo not drawn) [BK-I-181-B]", 5.29),
]

*Q* Give the measured pIC50 of O=C1CCC2(CO2)c2c1nnn2Cc1ccccc1 (stereo not drawn) [HHS-I-027-B] .
*A* 4.86

*Q* Please answer likewise for O=C1CCC2(CO2)c2c1nnn2Cc1ccc(Cl)cc1 (stereo not drawn) [BK-I-184-A]
*A* 6.13

*Q* Please answer likewise for COc1ccc(Cn2nnc3c2C2(CCC3=O)CO2)cc1 (stereo not drawn) [HHS-I-028-B]
*A* 6.01

*Q* Please answer likewise for O=C1CCC2(CO2)c2c1nnn2Cc1ccc(F)cc1 (stereo not drawn) [BK-I-178-A]
*A* 6.06

*Q* Please answer likewise for O=C1CCC2(CO2)c2c1nnn2CC1CCCCC1 (stereo not drawn) [BK-I-177-A]
*A* 4.77
